assayed.system: Human BCMA (human) (UniProt Q02223)
test.summary: SPR, IgG immobilised, huBCMA analyte, 37 C
measurement.label: kon (M⁻¹ s⁻¹)
Answer format: numeric, M⁻¹ s⁻¹ implied, no suffix.

>>> reported_value("L3.PY/L1.FF/H2.HA (antibody, V domains shown, IgG) VH: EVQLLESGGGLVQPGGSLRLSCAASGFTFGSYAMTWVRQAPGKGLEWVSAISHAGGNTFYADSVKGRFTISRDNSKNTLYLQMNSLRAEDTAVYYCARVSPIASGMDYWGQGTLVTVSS VL: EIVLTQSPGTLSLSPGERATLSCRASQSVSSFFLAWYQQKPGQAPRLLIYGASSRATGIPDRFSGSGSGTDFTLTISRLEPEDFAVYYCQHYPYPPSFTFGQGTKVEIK")
"3.49e+06"

Prompt: So what does the record say about kon for L3.PY/L1.FF/H2.QL (antibody, V domains shown, IgG) VH: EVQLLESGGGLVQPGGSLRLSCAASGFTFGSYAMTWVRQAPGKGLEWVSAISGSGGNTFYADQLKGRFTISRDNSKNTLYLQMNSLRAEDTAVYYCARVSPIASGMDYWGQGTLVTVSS VL: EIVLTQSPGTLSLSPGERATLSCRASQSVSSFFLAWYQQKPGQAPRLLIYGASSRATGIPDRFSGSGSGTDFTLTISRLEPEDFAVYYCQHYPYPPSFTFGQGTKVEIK ?
Completion: 3.48e+06

Prompt: So what does the record say about kon for L3.PY/L1.AH/H3.TAQ (antibody, V domains shown, IgG) VH: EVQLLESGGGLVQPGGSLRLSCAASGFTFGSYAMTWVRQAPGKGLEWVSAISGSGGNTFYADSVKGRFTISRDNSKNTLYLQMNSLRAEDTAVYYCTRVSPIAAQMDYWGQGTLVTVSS VL: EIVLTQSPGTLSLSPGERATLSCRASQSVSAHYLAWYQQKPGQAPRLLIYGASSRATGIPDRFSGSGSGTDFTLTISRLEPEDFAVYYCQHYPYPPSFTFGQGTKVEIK ?
Completion: 3.27e+06

Prompt: So what does the record say about kon for L3.PY/L3.KF/H2.YQ (antibody, V domains shown, IgG) VH: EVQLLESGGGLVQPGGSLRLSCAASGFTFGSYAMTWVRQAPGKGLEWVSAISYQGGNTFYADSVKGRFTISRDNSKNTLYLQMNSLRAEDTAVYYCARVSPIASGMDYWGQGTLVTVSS VL: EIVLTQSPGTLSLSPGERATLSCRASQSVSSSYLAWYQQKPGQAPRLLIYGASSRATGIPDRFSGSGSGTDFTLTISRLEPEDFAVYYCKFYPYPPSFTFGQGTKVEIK ?
Completion: 1.96e+06

Prompt: So what does the record say about kon for L3.PY/L1.FF/H2.QR (antibody, V domains shown, IgG) VH: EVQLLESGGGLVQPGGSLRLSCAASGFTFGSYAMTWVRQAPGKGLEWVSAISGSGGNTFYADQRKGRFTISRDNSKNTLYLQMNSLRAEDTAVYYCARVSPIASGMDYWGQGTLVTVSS VL: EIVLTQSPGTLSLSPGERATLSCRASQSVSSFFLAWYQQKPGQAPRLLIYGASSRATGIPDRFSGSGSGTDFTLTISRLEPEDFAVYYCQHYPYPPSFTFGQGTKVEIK ?
Completion: 3.47e+06
